- condition-description: in acetone, 293.15 K

- molecule: "CN(CCOc1ccc(CC2SC(=O)NC2=O)cc1)c1ccccn1 (stereo unspecified)"
  solubility (mole fraction): 0.00278

###

- condition-description: in methanol, 323.15 K

- compound: "CN(CCOc1ccc(CC2SC(=O)NC2=O)cc1)c1ccccn1 (stereo unspecified)"
  solubility (mole fraction): 0.00132

###

- condition-description: in methyl acetate, 323.15 K

- compound: "CN(CCOc1ccc(CC2SC(=O)NC2=O)cc1)c1ccccn1 (stereo unspecified)"
  solubility (mole fraction): 0.00795

###

- condition-description: in n-propanol, 293.15 K

- compound: "CN(CCOc1ccc(CC2SC(=O)NC2=O)cc1)c1ccccn1 (stereo unspecified)"
  solubility (mole fraction): 0.00028

Just for reference, BigSolDB 2.1 is where these values come from.
